Cited source for all entries: PubChem BioAssay (NCI)

- Tested on: MDA-MB-468 breast
- experiment: NCI-60 one-dose screen, 48 h
- assay-context: 10 µM unless noted
Compounds without any hit were thinned out: in the full panel of roughly 83,000, 20% have a hit. Calls of active or inactive are those of the source. The calls were made as follows: active = growth percent below 10; inactive = the rest.
Bench note: report the call from class 1 (active), class 0 (inactive)

Query: Write down the call the test reported for this molecule. Item: C#CCOc1ccc(/C=N\Nc2nc(-c3ccc(C)cc3)cs2)cc1OC
Result: class 0

Query: Write down the call the test reported for this molecule. Item: CCOC(=O)c1cc(C(=O)c2cc(OC)c(OC)c(OC)c2)n2ncc3ccccc3c12
Result: class 0

Query: Write down the call the test reported for this molecule. Item: C=C[C@@H]1C[C@H](O)Cc2ccccc2N1
Result: class 0

Query: Write down the call the test reported for this molecule. Item: COc1cc(C(=O)/C=C/c2cccnc2Nc2ccc(Cl)cc2)cc(OC)c1OC
Result: class 1

Query: Write down the call the test reported for this molecule. Item: Fc1ccc(CNc2c3ccccc3nc3ccccc23)c(F)c1
Result: class 1

Query: Write down the call the test reported for this molecule. Item: CCN1C(=O)N(CC)C2C1NC(=S)N2/N=C/C=C/c1ccccc1OC (stereo unspecified)
Result: class 1
